Cited source: patent US11414416B1

- tested target: Nanoluciferase-BRD9 fusion protein (Homo sapiens (Human))
- Sequence (Q9H8M2 whole entry, the tested form may be a part): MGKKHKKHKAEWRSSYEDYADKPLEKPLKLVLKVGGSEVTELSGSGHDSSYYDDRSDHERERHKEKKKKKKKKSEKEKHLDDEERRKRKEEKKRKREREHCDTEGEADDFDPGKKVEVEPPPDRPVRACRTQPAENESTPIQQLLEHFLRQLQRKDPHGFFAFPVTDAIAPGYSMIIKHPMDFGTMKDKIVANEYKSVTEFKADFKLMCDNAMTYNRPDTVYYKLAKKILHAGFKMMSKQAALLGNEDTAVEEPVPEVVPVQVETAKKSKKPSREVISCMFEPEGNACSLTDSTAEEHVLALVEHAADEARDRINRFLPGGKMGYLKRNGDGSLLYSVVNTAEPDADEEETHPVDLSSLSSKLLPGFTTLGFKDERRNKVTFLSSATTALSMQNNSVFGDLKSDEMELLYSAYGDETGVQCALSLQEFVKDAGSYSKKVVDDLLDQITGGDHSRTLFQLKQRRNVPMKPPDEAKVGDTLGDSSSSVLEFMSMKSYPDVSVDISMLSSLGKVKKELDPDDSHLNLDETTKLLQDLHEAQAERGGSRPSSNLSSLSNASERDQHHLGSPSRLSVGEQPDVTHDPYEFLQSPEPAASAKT
- procedure details: SYO1 BRD9 NanoLuc degradation assay
- Format: cell-based
- cond: Table 5B; SYO-1 cells expressing 3×FLAG-NLuc-BRD9, 6 hours; read-out: SYO1 BRD9-NanoLuc degradation IC50
This section presents molecules with their documented DC50 values.

Observe how each entry below is paired with its result.
>  <molecule>
COc1cc(-c2cn(C)c(=O)c3cnccc23)cc(OC)c1CN(C)CCCCN1CC2(CC(Oc3ccc4c(c3)C(=O)N(C3CCC(=O)NC3=O)C4=O)C2)C1 (centres unmarked) [Compound D251]

>  <DC50>
< 10 nM

$$$$
>  <molecule>
COc1cc(-c2cn(C)c(=O)c3cnccc23)cc(OC)c1CN1CC2(CCN(C(=O)C#Cc3ccc4c(c3)C(=O)N(C3CCC(=O)NC3=O)C4=O)C2)C1 (centres unmarked) [Compound D239]

>  <DC50>
< 10 nM

$$$$
>  <molecule>
COc1cc(-c2cn(C)c(=O)c3cnccc23)cc(OC)c1CN1CC(CC(=O)NC2CCC23CN(c2ccc4c(c2)C(=O)N(C2CCC(=O)NC2=O)C4=O)C3)C1 (centres unmarked) [Compound D209]

>  <DC50>
100 to 1000 nM

$$$$
>  <molecule>
COc1cc(-c2cn(C)c(=O)c3cnccc23)cc(OC)c1CN1CC2(CCN(C(=O)CCC#Cc3ccc4c(c3)C(=O)N(C3CCC(=O)NC3=O)C4=O)CC2)C1 (centres unmarked) [Compound D219]

>  <DC50>
< 10 nM

$$$$
>  <molecule>
COc1cc(-c2cn(C)c(=O)c3cnccc23)cc(OC)c1Cn1cc(COCCOc2ccc3c(c2)C(=O)N(C2CCC(=O)NC2=O)C3=O)nn1 (centres unmarked) [Compound D303]

>  <DC50>
10 to 100 nM

$$$$
>  <molecule>
COc1cc(-c2cn(C)c(=O)c3cnccc23)cc(OC)c1CN(C)CCCCN1CCC2(CC1)CN(c1ccc3c(c1)C(=O)N(C1CCC(=O)NC1=O)C3=O)C2 (centres unmarked) [Compound D222]

>  <DC50>
< 10 nM

$$$$

# input for lookup
Consider the molecule shown here: COc1cc(-c2cn(C)c(=O)c3cnccc23)cc(OC)c1CN(C)CCCCNC1CC2(C1)CN(c1ccc3c(c1)C(=O)N(C1CCC(=O)NC1=O)C3=O)C2 (centres unmarked) [Compound D250] What is its recorded DC50?
< 10 nM
